Kindly supply the reported pIC50 values for the records listed here.
EXPERIMENTAL TARGET: Solute carrier family 22 member 12 (Homo sapiens, UniProt Q96S37)
Sequence (Q96S37 whole entry, canonical isoform): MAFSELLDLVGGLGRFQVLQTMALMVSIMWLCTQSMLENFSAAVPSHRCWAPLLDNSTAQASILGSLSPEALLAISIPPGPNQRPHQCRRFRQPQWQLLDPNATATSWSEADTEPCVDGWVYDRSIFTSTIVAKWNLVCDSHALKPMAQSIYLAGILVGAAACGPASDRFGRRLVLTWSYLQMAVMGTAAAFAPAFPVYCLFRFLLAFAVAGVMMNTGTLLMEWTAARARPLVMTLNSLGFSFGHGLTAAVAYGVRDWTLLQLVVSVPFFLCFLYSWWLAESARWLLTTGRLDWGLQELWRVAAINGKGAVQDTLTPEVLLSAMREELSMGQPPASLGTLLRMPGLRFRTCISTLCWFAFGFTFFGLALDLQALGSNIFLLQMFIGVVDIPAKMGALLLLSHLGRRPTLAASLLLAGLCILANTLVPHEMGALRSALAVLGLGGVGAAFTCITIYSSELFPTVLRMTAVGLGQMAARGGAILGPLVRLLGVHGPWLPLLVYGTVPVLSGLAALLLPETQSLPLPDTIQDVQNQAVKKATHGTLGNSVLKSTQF
ASSAY REMARKS: Inhibition of human C-terminal eGFP-tagged URAT1 long isoform expressed in CHO cells assessed as decrease in [14C]-uric acid uptake preincubated for 15 mins followed by [14C]-uric acid addition and incubated in dark for 3 hrs by scintillation counting method
pIC50 is defined as minus the log10 of a concentration measured in mol/L.

Prompt: Recorded pIC50 for `N#Cc1ccc(NS(=O)(=O)c2ccccc2Cl)cc1Cl` , please?
Response: 7.09

Prompt: Record: `N#Cc1ccc(Cl)c(NS(=O)(=O)c2ccccc2C(F)(F)F)c1`
Response: 7.15

Prompt: Same lookup for `N#Cc1ccc(NS(=O)(=O)c2ccccc2C(F)(F)F)cc1C(F)(F)F` , please.
Response: 7.54

Prompt: What would you report for `O=S(=O)(Nc1ccc(F)c(C(F)(F)F)c1)c1ccccc1C(F)(F)F` ?
Response: 6.32

Prompt: Now give it for `Cc1cncc(NS(=O)(=O)c2ccccc2C(F)(F)F)c1` too.
Response: 6.73

* * *

ASSAY REMARKS: Dissociation constant, pKa of the compound
Format: physicochemical
PARAMETER MEASURED: pKa
Give a plain numeric answer without units written out.

Prompt: What value of pKa has been recorded for this entry: `O=S(=O)(Nc1cncc(C(F)(F)F)c1)c1ccccc1C(F)(F)F`
Response: 5.2

Prompt: Then `O=S(=O)(Nc1ccc(C(F)(F)F)nc1)c1ccccc1C(F)(F)F` ?
Response: 5.1

Prompt: Please answer likewise for `N#Cc1ccc(NS(=O)(=O)c2ccccc2C(F)(F)F)cc1Cl`
Response: 5.1

Prompt: Again, but for `O=S(=O)(Nc1cncc(Br)c1)c1ccccc1C(F)(F)F`
Response: 5.3

Prompt: What about this compound? `N#Cc1cc(NS(=O)(=O)c2ccccc2C(F)(F)F)ccc1C(F)(F)F`
Response: 5.1

Prompt: And what about the compound `N#Cc1cc(NS(=O)(=O)c2ccccc2C(F)(F)F)ccc1Cl` ?
Response: 5.8

* * *

Assignment: determine reported microsomal CLint for the given compounds.
ASSAY REMARKS: Intrinsic clearance in dog liver microsomes
Assay type: ADME, Canis lupus familiaris
CONDITION SUMMARY: read-out: CLH

Prompt: If you can, please state the reported microsomal CLint value of `O=S(=O)(Nc1ccc(C(F)(F)F)nc1)c1ccccc1C(F)(F)F` .
Response: < 18 µL/min/mg

Prompt: Repeat for the following compound: `O=S(=O)(Nc1cncc(C(F)(F)F)c1)c1ccccc1C(F)(F)F`
Response: < 18 µL/min/mg

* * *

Please go through the items and note down their pIC50.
EXPERIMENTAL TARGET: Voltage-gated inwardly rectifying potassium channel KCNH2 (Homo sapiens, UniProt Q12809)
Sequence (Q12809 whole entry): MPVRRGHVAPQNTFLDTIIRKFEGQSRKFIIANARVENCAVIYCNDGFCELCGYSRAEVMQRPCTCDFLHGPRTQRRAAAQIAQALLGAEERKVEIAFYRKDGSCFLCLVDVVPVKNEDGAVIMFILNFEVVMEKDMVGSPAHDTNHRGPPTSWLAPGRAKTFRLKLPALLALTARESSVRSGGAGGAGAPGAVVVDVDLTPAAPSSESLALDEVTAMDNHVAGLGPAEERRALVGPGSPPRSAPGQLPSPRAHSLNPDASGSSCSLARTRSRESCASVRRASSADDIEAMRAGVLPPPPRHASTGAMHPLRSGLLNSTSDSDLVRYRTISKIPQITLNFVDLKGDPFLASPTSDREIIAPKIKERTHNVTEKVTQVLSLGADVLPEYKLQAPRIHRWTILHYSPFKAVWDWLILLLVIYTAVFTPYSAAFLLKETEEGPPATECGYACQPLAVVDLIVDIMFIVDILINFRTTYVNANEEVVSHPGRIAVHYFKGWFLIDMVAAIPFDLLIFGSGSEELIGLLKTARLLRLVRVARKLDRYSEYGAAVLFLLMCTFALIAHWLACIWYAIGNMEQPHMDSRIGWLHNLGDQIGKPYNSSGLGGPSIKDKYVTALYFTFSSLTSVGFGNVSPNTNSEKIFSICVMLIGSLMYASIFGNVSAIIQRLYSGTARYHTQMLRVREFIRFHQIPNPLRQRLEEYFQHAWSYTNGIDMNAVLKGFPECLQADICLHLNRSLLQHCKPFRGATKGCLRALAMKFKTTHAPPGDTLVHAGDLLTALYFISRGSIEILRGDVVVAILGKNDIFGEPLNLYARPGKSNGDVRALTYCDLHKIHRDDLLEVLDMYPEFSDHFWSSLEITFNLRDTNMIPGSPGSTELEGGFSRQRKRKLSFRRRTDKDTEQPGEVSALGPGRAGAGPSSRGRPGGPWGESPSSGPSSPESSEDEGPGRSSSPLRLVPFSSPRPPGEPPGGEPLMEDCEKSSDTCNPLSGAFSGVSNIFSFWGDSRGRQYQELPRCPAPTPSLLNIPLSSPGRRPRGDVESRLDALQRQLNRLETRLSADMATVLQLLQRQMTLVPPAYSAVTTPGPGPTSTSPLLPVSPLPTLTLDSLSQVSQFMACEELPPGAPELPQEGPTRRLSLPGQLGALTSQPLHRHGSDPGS
ASSAY REMARKS: Inhibition of human ERG by patch clamp method
pIC50: −log10 of the molar value.

Prompt: Reported pIC50 for `O=S(=O)(Nc1ccc(C(F)(F)F)nc1)c1ccccc1C(F)(F)F` : what is it?
Response: < 4.00

Prompt: Entry `O=S(=O)(Nc1cncc(C(F)(F)F)c1)c1ccccc1C(F)(F)F` please
Response: < 4.00

* * *

ASSAY REMARKS: Fraction unbound in dog plasma
Format: ADME, cell-free, Canis lupus familiaris
Provide the reported fraction unbound of each item.
Reply with just the number.

Prompt: Endpoint output: fraction unbound of `O=S(=O)(Nc1ccc(C(F)(F)F)nc1)c1ccccc1C(F)(F)F` . Value?
Response: 0.01

Prompt: Check `O=S(=O)(Nc1cncc(C(F)(F)F)c1)c1ccccc1C(F)(F)F` too.
Response: 0.057
